# Target Under Test: rabbit reticulocyte 15-LO (Oryctolagus cuniculus)
# Construct: Fifteen-lipoxygenase was obtained from phenylhydrazine-treated rabbits and purified per the method of Rapoport; from tissue; host or cells: reticulocytes of phenylhydrazine-treated rabbits
# Sequence (P12530 1-663): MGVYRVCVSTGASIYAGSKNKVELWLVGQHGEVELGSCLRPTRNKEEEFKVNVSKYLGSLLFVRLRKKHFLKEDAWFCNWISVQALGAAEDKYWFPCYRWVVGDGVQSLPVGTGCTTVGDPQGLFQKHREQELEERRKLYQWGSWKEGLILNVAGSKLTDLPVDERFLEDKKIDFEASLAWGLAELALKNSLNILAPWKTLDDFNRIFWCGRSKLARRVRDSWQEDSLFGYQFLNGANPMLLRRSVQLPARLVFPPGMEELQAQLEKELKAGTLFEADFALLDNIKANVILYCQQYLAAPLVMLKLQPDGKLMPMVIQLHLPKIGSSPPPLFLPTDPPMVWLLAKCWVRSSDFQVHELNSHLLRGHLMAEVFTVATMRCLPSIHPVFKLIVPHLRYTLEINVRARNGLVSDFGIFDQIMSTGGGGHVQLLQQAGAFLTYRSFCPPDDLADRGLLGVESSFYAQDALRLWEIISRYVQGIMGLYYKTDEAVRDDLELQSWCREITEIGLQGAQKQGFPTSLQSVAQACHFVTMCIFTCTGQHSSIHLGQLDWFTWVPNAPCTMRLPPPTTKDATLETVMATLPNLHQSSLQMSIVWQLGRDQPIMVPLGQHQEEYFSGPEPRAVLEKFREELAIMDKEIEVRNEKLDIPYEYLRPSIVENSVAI
# Assay Explanation: Rabbit Reticulocyte 15-LO Assay (h15LO)
# Format: biochemical
# Conditions: Table 2; 2U rabbit reticulocyte 15-LO, 174 μM linoleic acid, 15 minutes at 4° C.
Reported Property: IC50 (nM)

• COc1ccc(C(=O)Nc2ccc(F)cc2)cc1Nc1cc(C)cc(C)c1 = 20

A: COc1ccc(C(=O)Nc2ccccc2)cc1NC(=S)Nc1cccnc1
B: COc1ccc(C(=O)Nc2ccccc2)cc1NC(=S)Nc1ccc([N+](=O)[O-])cc1
C: COc1ccc(C(=O)Nc2ccccc2)cc1NS(=O)(=O)c1cccs1
Parameters: sort_field (IC50), sort_dir (desc). Answer by writing out the labels in the requested order.
B, A, C

----------
# Target Under Test: rabbit reticulocyte 15-LO (Oryctolagus cuniculus, UniProt P12530)
# Construct: Fifteen-lipoxygenase was obtained from phenylhydrazine-treated rabbits and purified per the method of Rapoport; from tissue; host or cells: reticulocytes of phenylhydrazine-treated rabbits
# Assay Explanation: Rabbit Reticulocyte 15-LO Assay (h15LO)
# Type: biochemical
# Conditions: Table 2; 2U rabbit reticulocyte 15-LO, 174 μM linoleic acid, 15 minutes at 4° C.
Reported Property: IC50 (nM)

I: COc1ccc(C(=O)Nc2ccccc2)cc1NCc1ccc2c(c1)OCCO2
II: COc1ccc(C(=O)Nc2ccc(C)c(C)c2)cc1NC(=S)Nc1cccc(C)c1
Parameter check: reported IC50 is higher for which label, I or II ? Lab note: record the label of whichever item you select.
I

A: CCN(CC)c1ccc(CNc2cc(C(=O)Nc3ccccc3)ccc2OC)cc1
B: CCc1ccc(C(=O)Nc2ccccc2)cc1NC(=S)Nc1cccc(C(F)(F)F)c1
# query: argmin of IC50 over A and B Lab note: record the label of whichever item you select.
A

I: COc1ccc(C(=O)Nc2ccccc2)cc1NS(=O)(=O)c1cn(C)cn1
II: COc1ccc(C(=O)Nc2ccccc2)cc1NCc1ccccc1C
Parameter check: reported IC50 is higher for which label, I or II ? Lab note: record the label of whichever item you select.
II
(II: 892 nM, I: 582 nM)
